- target.of.assay: T1, TLR7 F506L (Macaca mulatta, UniProt B3Y653 27-839, F506L)
- T1 sequence: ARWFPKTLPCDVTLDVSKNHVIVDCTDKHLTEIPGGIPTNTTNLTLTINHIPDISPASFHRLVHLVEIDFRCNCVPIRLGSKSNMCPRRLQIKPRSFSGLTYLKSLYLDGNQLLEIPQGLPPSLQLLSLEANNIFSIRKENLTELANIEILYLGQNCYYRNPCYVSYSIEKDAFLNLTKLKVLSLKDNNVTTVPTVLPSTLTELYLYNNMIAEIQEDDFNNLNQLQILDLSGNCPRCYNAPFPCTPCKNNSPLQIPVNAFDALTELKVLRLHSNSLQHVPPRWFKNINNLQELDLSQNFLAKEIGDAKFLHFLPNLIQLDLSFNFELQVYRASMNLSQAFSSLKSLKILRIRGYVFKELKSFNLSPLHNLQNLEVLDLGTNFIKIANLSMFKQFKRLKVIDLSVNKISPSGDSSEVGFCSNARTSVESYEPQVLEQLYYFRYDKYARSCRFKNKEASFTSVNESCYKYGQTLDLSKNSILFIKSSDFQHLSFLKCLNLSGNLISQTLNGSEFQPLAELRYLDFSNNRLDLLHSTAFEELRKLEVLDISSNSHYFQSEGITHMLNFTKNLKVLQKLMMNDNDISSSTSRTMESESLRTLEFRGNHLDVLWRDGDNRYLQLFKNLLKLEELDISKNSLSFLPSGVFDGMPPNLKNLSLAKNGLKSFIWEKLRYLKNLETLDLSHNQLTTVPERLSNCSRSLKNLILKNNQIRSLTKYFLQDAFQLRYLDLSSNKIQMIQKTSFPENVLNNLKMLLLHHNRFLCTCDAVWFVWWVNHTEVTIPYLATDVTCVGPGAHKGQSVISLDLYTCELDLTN
- assay.overview: SPR; mean computed from runs 4±0.5, 5±0.6, 5±2; SPR with recombinant TLR7/TLR8; buffer, pH and temperature not in the material
- details: protein: recombinant; chain copies: 2; single-stranded
metric: Kd

In: For GUC (XNA, 2'-OMe G1, RNA U2 C3; phosphorothioate linkages) [mGrUrC PS] , what is its reported Kd?
Out: 4.67 µM
